Species on record: Ovis aries
PROCEDURE_DETAILS: Selectivity ratio of inhibition for sheep COX-1 to inhibition for sheep COX-2 at 20 uM
# Selectivity ratio values compiled below
Quick one: just the number, no unit, thanks!

Solved entries:
[[record]]
chemical_smiles = "CS(=O)(=O)c1ccc(-n2c(-c3ccccc3)nc3ccccc3c2=O)cc1"
value_kind = "Selectivity ratio"
observed = 0.31

[[record]]
chemical_smiles = "COc1ccc(-c2nc3cc(Cl)ccc3c(=O)n2-c2ccc(S(C)(=O)=O)cc2)cc1"
value_kind = "Selectivity ratio"
observed = 0.167

[[record]]
chemical_smiles = "CS(=O)(=O)c1ccc(-n2c(-c3ccccc3)nc3ccc(Br)cc3c2=O)cc1"
value_kind = "Selectivity ratio"
observed = 0.04

[[record]]
chemical_smiles = "CSc1ccc(-n2c(-c3ccccc3)nc3ccccc3c2=O)cc1"
value_kind = "Selectivity ratio"
observed = 0.3

[[record]]
chemical_smiles = "COc1ccc(-c2nc3ccc(Br)cc3c(=O)n2-c2ccc(S(C)(=O)=O)cc2)cc1"
value_kind = "Selectivity ratio"
observed = 0.106


Entry under review: COc1ccc(-c2nc3cc(F)ccc3c(=O)n2-c2ccc(S(C)(=O)=O)cc2)cc1 . Reported Selectivity ratio?
0.453

Try COc1ccc(-c2nc3ccccc3c(=O)n2-c2ccc(SC)cc2)cc1 next.
0.536

Now consider CS(=O)(=O)c1ccc(-n2c(-c3ccccc3)nc3cc(F)ccc3c2=O)cc1 .
0.238

And COc1ccc(-c2nc3ccccc3c(=O)n2-c2ccc(S(C)(=O)=O)cc2)cc1 ?
0.471

----------
TESTED_SYSTEM: Prostaglandin G/H synthase 1 (Ovis aries) (UniProt P05979)
Sequence (P05979 whole entry): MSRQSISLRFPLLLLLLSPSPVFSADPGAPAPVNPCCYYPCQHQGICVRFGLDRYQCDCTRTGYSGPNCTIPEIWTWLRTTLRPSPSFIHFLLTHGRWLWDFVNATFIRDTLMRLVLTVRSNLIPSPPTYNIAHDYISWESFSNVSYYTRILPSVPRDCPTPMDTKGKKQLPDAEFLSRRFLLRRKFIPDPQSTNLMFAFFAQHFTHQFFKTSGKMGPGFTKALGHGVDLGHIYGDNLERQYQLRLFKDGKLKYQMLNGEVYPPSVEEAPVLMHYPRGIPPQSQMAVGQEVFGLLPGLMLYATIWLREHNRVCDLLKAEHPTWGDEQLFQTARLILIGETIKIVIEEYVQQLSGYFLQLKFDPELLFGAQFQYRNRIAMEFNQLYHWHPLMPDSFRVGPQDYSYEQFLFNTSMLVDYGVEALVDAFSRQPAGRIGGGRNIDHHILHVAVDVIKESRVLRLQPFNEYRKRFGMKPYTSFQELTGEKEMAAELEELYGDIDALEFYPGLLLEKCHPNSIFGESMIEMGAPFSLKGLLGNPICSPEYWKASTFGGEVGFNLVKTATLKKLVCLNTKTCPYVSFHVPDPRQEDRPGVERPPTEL
PROCEDURE_DETAILS: Inhibition of sheep COX-1 at 20 uM by cayman colorimetric assay
Below, each entry is listed alongside its reported inhibition.
Return type: number; implicit unit %.

# get_value(readout='inhibition', item= CS(=O)(=O)c1ccc(-n2c(-c3ccccc3)nc3cc(F)ccc3c2=O)cc1 )
15

Now consider CS(=O)(=O)c1ccc(-n2c(-c3ccccc3)nc3ccccc3c2=O)cc1 and answer again.
13

----------
Tested on: Rattus norvegicus
PROCEDURE_DETAILS: Antiinflammatory activity in rat assessed as inhibition of carrageenan-induced paw edema at 50 mg/kg, po measured after 90 min by Plethysmograph
Format: functional
ASSAY_CONDITIONS: 1.5 h
Label YES when inhibition in vivo at 50 mg/kg is at or above 30%; anything below gets NO.

[[record]]
chemical_smiles = "COc1ccc(-c2nc3cc(Cl)ccc3c(=O)n2-c2ccc(S(C)(=O)=O)cc2)cc1"
tested_system = "Rattus norvegicus"
label_value = "YES"


Could you tell me if the measured inhibition in vivo at 50 mg/kg of COc1ccc(-c2nc3ccc(Br)cc3c(=O)n2-c2ccc(S(C)(=O)=O)cc2)cc1 reaches 30% or more?
YES

And the next one, COc1ccc(-c2nc3ccc(Br)cc3c(=O)n2-c2ccc(SC)cc2)cc1 ?
YES

How about this compound: CSc1ccc(-n2c(-c3ccccc3)nc3ccccc3c2=O)cc1
NO

Then what about the compound COc1ccc(-c2nc3cc(Cl)ccc3c(=O)n2-c2ccc(SC)cc2)cc1 ?
YES

Param item: COc1ccc(-c2nc3cc(F)ccc3c(=O)n2-c2ccc(S(C)(=O)=O)cc2)cc1
YES

Follow-up entry: CSc1ccc(-n2c(-c3ccccc3)nc3cc(Cl)ccc3c2=O)cc1
YES
